Target: S-methyl-5'-thioadenosine phosphorylase (Homo sapiens)
Sequence (Q13126 whole entry): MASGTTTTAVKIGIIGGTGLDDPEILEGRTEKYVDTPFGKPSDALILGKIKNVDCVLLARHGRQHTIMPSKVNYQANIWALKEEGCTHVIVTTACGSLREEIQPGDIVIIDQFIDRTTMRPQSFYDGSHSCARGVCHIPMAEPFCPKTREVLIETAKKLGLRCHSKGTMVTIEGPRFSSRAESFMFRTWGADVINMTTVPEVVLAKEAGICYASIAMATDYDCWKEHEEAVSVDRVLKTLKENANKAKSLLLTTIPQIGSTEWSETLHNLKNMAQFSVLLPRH
Test: Inhibition of human MTAP as initial dissociation constant
In this section we review reported pKi values for a set of molecules.
Please report pKi as the negative decimal logarithm of the molar concentration, giving only the number.

Below: 2 molecules and their reported pKi.
Please look at this molecule and report its pKi: NC1NC=Nc2c(CN3CC(O)C(CSc4ccc(F)cc4)C3)c[nH]c21 (stereo not drawn)
9.09

Name the recorded pKi of the molecule listed here: Nc1[nH]cnc2c(CN3CC(O)C(CSCc4ccccc4)C3)cnc1-2 (stereo not drawn)
8.85

Please examine the following record next.
Return pKi (reported value) for this molecule: CCCSCC1CN(Cc2c[nH]c3c2NC=NC3N)CC1O (stereo not drawn)
8.89

Attribution: ChEMBL document CHEMBL1140320
